target: Sodium-dependent serotonin transporter (Homo sapiens, UniProt P31645); test: Inhibition of 5-hydroxytryptamine reuptake
Sequence (P31645 whole entry): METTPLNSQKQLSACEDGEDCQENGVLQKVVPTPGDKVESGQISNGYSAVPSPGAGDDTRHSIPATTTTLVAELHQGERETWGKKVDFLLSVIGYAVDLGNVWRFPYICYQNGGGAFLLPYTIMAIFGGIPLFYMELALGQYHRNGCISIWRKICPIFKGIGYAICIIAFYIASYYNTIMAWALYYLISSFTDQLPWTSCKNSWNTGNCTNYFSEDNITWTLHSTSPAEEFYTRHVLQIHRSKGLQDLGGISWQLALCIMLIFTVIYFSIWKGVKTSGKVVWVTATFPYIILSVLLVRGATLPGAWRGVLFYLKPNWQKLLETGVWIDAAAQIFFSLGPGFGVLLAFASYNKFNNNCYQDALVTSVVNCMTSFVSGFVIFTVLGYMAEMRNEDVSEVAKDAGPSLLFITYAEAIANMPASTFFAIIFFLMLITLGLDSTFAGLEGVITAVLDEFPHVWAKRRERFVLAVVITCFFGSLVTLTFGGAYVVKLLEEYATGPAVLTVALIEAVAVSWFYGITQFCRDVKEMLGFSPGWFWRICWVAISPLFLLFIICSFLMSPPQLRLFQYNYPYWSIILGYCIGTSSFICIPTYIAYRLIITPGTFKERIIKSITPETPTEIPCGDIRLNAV
Reported pIC50 by item:
Please treat pIC50 as minus the base-10 logarithm of the molar concentration.

Cc1nnc(-c2ccc(-c3ccc(C(=O)Nc4ccc(O)c(N5CCN(C)CC5)c4)cc3)c(C)c2)o1 : 5.33

Query: For the molecule shown here, "Cc1nc(-c2ccc(-c3ccc(C(=O)Nc4ccc(OCCF)c(N5CCN(C)CC5)c4)cc3)c(C)c2)no1" , give the reported pIC50.
Response: 6.05

Query: For the molecule shown here, "COc1ccc(NC(=O)c2ccc(-c3ccc(C(=N)N)cc3C)cc2)cc1N1CCN(C)CC1" , give the reported pIC50.
Response: 6.39

Query: For the molecule shown here, Cc1nc(-c2ccc(-c3ccc(C(=O)N4CCc5cc6c(cc54)C4(CCN(C)CC4)CO6)cc3)c(C)c2)no1 [SB-224289] , give the reported pIC50.
Response: 5.33

Query: For the molecule shown here, COc1ccc(NC(=O)c2ccc(-c3ccc(-c4noc(C)n4)cc3C)cc2)cc1N1CCN(C)CC1 [GR-127935] , give the reported pIC50.
Response: 6.00

Query: For the molecule shown here, "Cc1nnc(-c2ccc(-c3ccc(C(=O)Nc4ccc(OS(C)(=O)=O)c(N5CCN(C)CC5)c4)cc3)c(C)c2)o1" , give the reported pIC50.
Response: 5.42
